# TARGET_UNDER_TEST: UniProtKB P53350
# Sequence (P53350 whole entry): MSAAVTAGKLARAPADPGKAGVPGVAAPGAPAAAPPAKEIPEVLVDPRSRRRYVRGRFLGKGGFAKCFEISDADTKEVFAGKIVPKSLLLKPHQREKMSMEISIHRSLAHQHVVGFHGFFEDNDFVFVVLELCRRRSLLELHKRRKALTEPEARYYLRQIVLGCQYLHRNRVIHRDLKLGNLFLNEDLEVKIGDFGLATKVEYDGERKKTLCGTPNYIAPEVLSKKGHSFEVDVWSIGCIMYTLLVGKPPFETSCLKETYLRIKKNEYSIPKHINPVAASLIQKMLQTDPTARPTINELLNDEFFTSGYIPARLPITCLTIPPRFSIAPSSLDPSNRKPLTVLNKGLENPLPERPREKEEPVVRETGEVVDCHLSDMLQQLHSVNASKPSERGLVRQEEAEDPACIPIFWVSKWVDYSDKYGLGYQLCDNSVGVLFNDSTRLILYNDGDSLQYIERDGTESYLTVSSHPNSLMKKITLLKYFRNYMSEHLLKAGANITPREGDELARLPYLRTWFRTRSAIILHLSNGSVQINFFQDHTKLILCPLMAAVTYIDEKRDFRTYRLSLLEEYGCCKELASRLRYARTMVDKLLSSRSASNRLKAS
# ASSAY_DETAILS: biochemical
# Parameters: species or system HEK293/K-562/placenta mixed human extract; Kinobeads chemoproteomic competition binding, quantified by TMT LC-MS/MS, dose response up to 20 uM
OBSERVED_PROPERTY: IC50

## Task Suppose we examine the compound COc1ccccc1-c1n[nH]c2nc(N[C@H]3CC[C@H](NS(=O)(=O)CCC(F)(F)F)CC3)nc(OC)c12 [compound 31] ; what IC50 value has been reported?
## Result ≥ 20 µM

---

# TARGET_UNDER_TEST: PKN3 (Homo sapiens, UniProt Q6P5Z2)
# Sequence (Q6P5Z2 whole entry): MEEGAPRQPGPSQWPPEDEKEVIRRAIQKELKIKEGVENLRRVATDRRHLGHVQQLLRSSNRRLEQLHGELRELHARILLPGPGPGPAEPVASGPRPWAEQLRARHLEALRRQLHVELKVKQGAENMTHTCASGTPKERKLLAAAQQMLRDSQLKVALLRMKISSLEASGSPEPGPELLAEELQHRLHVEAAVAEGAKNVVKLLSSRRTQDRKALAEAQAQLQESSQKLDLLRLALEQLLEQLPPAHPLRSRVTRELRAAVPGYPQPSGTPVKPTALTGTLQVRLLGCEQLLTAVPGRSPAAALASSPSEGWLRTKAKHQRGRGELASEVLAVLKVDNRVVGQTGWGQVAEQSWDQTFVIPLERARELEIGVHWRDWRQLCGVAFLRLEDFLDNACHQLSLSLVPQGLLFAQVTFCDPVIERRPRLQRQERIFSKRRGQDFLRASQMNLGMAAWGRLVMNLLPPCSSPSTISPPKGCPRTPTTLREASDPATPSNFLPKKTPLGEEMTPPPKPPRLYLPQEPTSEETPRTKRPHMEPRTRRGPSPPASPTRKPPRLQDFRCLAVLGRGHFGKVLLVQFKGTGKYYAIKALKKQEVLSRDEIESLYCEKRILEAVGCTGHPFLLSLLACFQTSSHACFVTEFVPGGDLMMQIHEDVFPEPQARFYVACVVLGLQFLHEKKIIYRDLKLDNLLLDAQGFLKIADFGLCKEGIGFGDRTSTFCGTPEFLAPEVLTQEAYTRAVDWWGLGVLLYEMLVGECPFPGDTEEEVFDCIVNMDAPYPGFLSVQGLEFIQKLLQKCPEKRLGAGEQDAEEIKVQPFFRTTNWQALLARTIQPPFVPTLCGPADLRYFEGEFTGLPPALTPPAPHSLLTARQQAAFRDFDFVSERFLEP
# ASSAY_DETAILS: biochemical
# Set-up: species or system HEK293/K-562/placenta mixed human extract; Kinobeads chemoproteomic competition binding, quantified by TMT LC-MS/MS, dose response up to 20 uM
OBSERVED_PROPERTY: IC50

## Task Suppose we examine the compound COc1ccccc1-c1n[nH]c2nc(N[C@H]3CC[C@H](NS(=O)(=O)CCC(F)(F)F)CC3)nc(OC)c12 [compound 31] ; what IC50 value has been reported?
## Result ≥ 20 µM
